# inhibition annotations
Assay: Inhibition of quorum sensing system in Pseudomonas aeruginosa MH602 PlasB::gfp at 62.5 uM incubated for 15 hrs by GFP reporter gene assay
Just so you know, I need the unit written after the number.

Here is how some molecules turned out for inhibition.
# chemical.structure, inhibition
data = [
    ("C=C1NC(=O)C=C1c1cccc(C(F)(F)F)c1", "57.1%"),
    ("C=C1NC(=O)C=C1c1ccc(C)cc1", "72.3%"),
    ("C=C1C(c2ccc(Br)cc2)=CC(=O)N1c1ccc(Br)cc1", "40.4%"),
    ("O=C1C=C(Br)/C(=C/Br)O1", "77%"),
    ("C=C1C(c2ccc(Br)cc2)=CC(=O)N1c1csc2ccccc12", "42.8%"),
]

// below: inhibition requested for another molecule
Item: C=C1C(c2ccccc2F)=CC(=O)N1c1ccc(C)cc1 | inhibition: 53.3%
